- testedOn: Retinoic acid receptor RXR-alpha (Homo sapiens) (UniProt P19793)
- Sequence (P19793 whole entry, looked up): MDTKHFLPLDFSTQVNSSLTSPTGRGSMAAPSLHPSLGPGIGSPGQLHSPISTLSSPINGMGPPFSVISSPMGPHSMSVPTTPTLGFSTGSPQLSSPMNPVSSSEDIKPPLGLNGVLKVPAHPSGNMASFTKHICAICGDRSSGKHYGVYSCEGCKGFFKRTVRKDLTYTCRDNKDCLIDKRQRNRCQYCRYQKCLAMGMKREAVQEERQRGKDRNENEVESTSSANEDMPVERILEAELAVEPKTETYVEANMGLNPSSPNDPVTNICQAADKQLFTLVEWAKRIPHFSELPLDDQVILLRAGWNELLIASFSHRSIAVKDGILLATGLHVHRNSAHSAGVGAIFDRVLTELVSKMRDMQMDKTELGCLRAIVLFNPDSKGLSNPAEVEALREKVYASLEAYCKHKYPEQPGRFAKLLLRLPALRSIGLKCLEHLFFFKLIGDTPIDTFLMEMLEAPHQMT
- assayProtocol: qHTS assay for small molecule antagonists of retinoid X receptor alpha signaling (AID 588546);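 further: cells stimulated with 9-cis-retinoic acid as agonist; on the % scale 0 is the no-effect control and ±100 the full control effect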
- runParameters: HEK293T RXRa-UAS-bla, beta-lactamase ratio, antagonist mode
Records with an inconclusive call do not appear.

- compound: "Cc1ccc2c(C)cccc2c1"
  max response, %: 4.66
- compound: "O=S(=O)(O)F"
  max response, %: 39.7
- compound: "Cc1ccc(N)cc1C"
  max response, %: -2
- compound: "Clc1cc(Cl)c(Cl)c(Cl)c1"
  max response, %: 14.2
- compound: "O=[N+]([O-])c1c(Cl)c(Cl)c(Cl)c(Cl)c1Cl"
  max response, %: -5.68
- compound: "Clc1ccc(C(c2ccccc2Cl)C(Cl)(Cl)Cl)cc1 (centres undefined)"
  max response, %: -26
- compound: "BrC(Br)Br"
  max response, %: 20
- compound: "ClCCCCl"
  max response, %: 9.28
- compound: "Oc1c(Cl)cccc1Cl"
  max response, %: 27.8

----------
- Tested on: HIV-1 nucleocapsid protein NCp7 (binding to TG oligonucleotide)
- assayProtocol: HIV Nucleocapsid (AID 346);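 further: potency is for inhibitors that block NC binding and lower polarization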
- runParameters: HIV-1 NC / fluorescein-TGTGTGTG probe, fluorescence polarization
Active and inactive are the calls of the source. How the calls were made is not given here.
Outcome codes: Y for active, N for inactive

- molecularString: "CN(C)c1nc(-c2ccc3c(c2)OCO3)nc2ccccc12"
  testedOn: "HIV-1 nucleocapsid protein NCp7 (binding to TG oligonucleotide)"
  labelClass: "N"
- molecularString: "O=c1c(-c2ccc(F)cc2)nc2cnc(Oc3cccc(Cl)c3)nc2n1C1CC1"
  testedOn: "HIV-1 nucleocapsid protein NCp7 (binding to TG oligonucleotide)"
  labelClass: "N"
- molecularString: "Cc1ccccc1-c1nccc(NCCN2CCOCC2)n1"
  testedOn: "HIV-1 nucleocapsid protein NCp7 (binding to TG oligonucleotide)"
  labelClass: "N"
- molecularString: "COCCn1c(=O)c(-c2cn(C)c3ccccc23)nc2cnc(Oc3ccccc3)nc21"
  testedOn: "HIV-1 nucleocapsid protein NCp7 (binding to TG oligonucleotide)"
  labelClass: "N"
- molecularString: "COc1cccc(Cn2c(=O)c(-c3cccc(C#N)c3)nc3cnc(Nc4ccccc4)nc32)c1"
  testedOn: "HIV-1 nucleocapsid protein NCp7 (binding to TG oligonucleotide)"
  labelClass: "Y"
- molecularString: "O=C(c1cnccn1)N1CCC2(CCCN(Cc3ccccc3)C2)CC1"
  testedOn: "HIV-1 nucleocapsid protein NCp7 (binding to TG oligonucleotide)"
  labelClass: "N"

----------
- assayProtocol: qHTS assay for cell viability of the p53RE-bla HCT-116 cell line (AID 743292); further: on the % scale 0 is the no-effect control and ±100 the full control effect; nearly all actives have a fitted effect of over 55% in size
- runParameters: p53RE-bla HCT-116 viability, ATP luminescence, 16 h; series mostly up to 95 µM
Records with an inconclusive call do not appear. The source made the active and inactive calls. The call rests on the fitted dose curve; in most records, active means well fitted cell-killing curve with a large enough effect; inconclusive means small, poorly fitted or top-dose-only effect, or effect the other way; inactive means flat fitted curve, though single readings scatter.

- compound: "CC(C)CC(C)N (configuration not stated)"
  outcome: "inactive"
- compound: "CCCCCc1cc(O)cc(O)c1"
  outcome: "inactive"
- compound: "O=C(O)CCl"
  outcome: "inactive"
- compound: "CCCCCOC(=O)c1ccccc1C(=O)OCCCCC"
  outcome: "inactive"
- compound: "N#CC(Cl)(Cl)Cl"
  outcome: "inactive"
- compound: "CCC/C=N/O"
  outcome: "inactive"
- compound: "O=S(=O)(Cl)c1ccccc1"
  outcome: "inactive"
- compound: "Nc1ccccc1-c1ccccc1"
  outcome: "inactive"
- compound: "CCOP(=S)(OCC)Oc1nc(Cl)c(Cl)cc1Cl"
  outcome: "inactive"
- compound: "Nc1ccc2ccccc2c1"
  outcome: "inactive"
- compound: "COC(=O)Nc1cccc(OC(=O)Nc2cccc(C)c2)c1"
  outcome: "inactive"
- compound: "N#CCBr"
  outcome: "inactive"
- compound: "OCCOCCO"
  outcome: "inactive"
- compound: "CCN(CC)N=O"
  outcome: "inactive"
- compound: "CN(C)c1ccc(N)cc1"
  outcome: "inactive"
- compound: "C=CC(=O)OCCN(C)C"
  outcome: "inactive"
- compound: "C=CC(=O)OCCO"
  outcome: "inactive"
